# System: Pseudomonas aeruginosa
# Test Method Notes: Antibacterial activity against Pseudomonas aeruginosa ATCC 27853 assessed as growth inhibition after 24 hrs
# Type: functional
# Reported Conditions: Pseudomonas aeruginosa, ATCC 27853, 24 h
Measured Endpoint: MIC90 (µg/mL)
Write the answer as a number in µg/mL, unit excluded.

Please report the recorded MIC90 for `H-RWWRWWRRWW-NH2` .
46

Continue with `H-NGVQPKYKWWKWWKKWW-NH2`
91

---

# Test Method Notes: Therapeutic index, ratio of MHC for human RBC to MIC for Escherichia coli ATCC 25922
# Reported Conditions: human red blood cells (RBC), read-out: TI
Measured Endpoint: selectivity ratio
Please respond with just the number, no unit label.

Please report the recorded selectivity ratio for `H-NGVQPKYKWWKWWKKWWW-NH2` .
2

Continue with `H-NGVQPKYRWWRWWRRWW-NH2`
1

Continue with `H-NGVQPKYRWWRWWRRWW-OH`
0.5

Continue with `H-NGVQPKYKWWKWWKKWW-NH2`
4

---

# Test Method Notes: Therapeutic index, ratio of MHC for human RBC to MIC for Staphylococcus epidermidis ATCC 12228
# Reported Conditions: human red blood cells (RBC), read-out: TI
Would you kindly list selectivity ratio for each of these substances?
Please respond with just the number, no unit label.

Please report the recorded selectivity ratio for `H-NGVQPKYRWWRWWRRWWWW-NH2` .
0.06

Continue with `H-NGVQPKYRWWRWWRRWW-OH`
1

Continue with `H-NGVQPKYKWWKWWKKWW-NH2`
2

Continue with `H-NGVQPKYRWWRWWRRWWW-OH`
0.25

Continue with `H-NGVQPWYKWWKWWKKWW-NH2`
0.06

Continue with `H-NGVQPKYKWWKWWKKWWW-NH2`
1

Continue with `H-NGVQPKYRWWRWWRRWW-NH2`
2

---

Would you kindly list MIC90 for each of these substances?
# Test Method Notes: Antibacterial activity against Vibrio cholerae non-O1 non-O139 assessed as growth inhibition after 24 hrs
# Assay type: functional
# Reported Conditions: Vibrio cholerae, non-O139, 24 h
Write the answer as a number in µg/mL, unit excluded.

Please report the recorded MIC90 for `H-RWWRWWRRWW-NH2` .
23

Continue with `H-NGVQPWYKWWKWWKKWW-NH2`
91

Continue with `H-NGVQPKYRWWRWWRRWW-NH2`
46

Continue with `H-NGVQPKYKWWKWWKKWW-NH2`
11

---

Would you kindly list selectivity ratio for each of these substances?
# Test Method Notes: Therapeutic index, ratio of MHC for human RBC to MIC for Vibrio cholerae non-O1 non-O139
# Reported Conditions: human red blood cells (RBC), read-out: TI
Please respond with just the number, no unit label.

Please report the recorded selectivity ratio for `H-NGVQPKYKWWKWWKKWW-NH2` .
4

Continue with `H-NGVQPKYRWWRWWRRWW-NH2`
1

Continue with `H-NGVQPWYKWWKWWKKWW-NH2`
0.06

Continue with `H-RWWRWWRRWW-NH2`
0.08

---

# Test Method Notes: Hemolytic activity in human RBC at 1 to 91 ug/ml
# Type: ADME, cell-based
# Reported Conditions: erythrocyte
Measured Endpoint: Activity

Completed entries (count: 8):
H-NGVQPKYRWWRWWRRWW-NH2 = Non-toxic
H-NGVQPKYRWWRWWRRWW-OH = Toxic
H-NGVQPKYKWWKWWKKWWW-NH2 = Toxic
H-NGVQPKYKWWKWWKKWW-NH2 = Non-toxic
H-RWWRWWRRWWW-NH2 = Toxic
H-NGVQPWYKWWKWWKKWW-NH2 = Toxic
H-NGVQPKYRWWRWWRRWWWW-NH2 = Toxic
H-RWWRWWRRWW-NH2 = Toxic

Continue with the substance presented below.
Please report the recorded Activity for `H-NGVQPKYRWWRWWRRWWW-OH` .
Toxic

All values here come from ChEMBL document CHEMBL2406905.
